Readings of pKi for the listed compounds
- system: Amyloid-beta precursor protein (Homo sapiens, UniProt P05067)
- Sequence (P05067 whole entry): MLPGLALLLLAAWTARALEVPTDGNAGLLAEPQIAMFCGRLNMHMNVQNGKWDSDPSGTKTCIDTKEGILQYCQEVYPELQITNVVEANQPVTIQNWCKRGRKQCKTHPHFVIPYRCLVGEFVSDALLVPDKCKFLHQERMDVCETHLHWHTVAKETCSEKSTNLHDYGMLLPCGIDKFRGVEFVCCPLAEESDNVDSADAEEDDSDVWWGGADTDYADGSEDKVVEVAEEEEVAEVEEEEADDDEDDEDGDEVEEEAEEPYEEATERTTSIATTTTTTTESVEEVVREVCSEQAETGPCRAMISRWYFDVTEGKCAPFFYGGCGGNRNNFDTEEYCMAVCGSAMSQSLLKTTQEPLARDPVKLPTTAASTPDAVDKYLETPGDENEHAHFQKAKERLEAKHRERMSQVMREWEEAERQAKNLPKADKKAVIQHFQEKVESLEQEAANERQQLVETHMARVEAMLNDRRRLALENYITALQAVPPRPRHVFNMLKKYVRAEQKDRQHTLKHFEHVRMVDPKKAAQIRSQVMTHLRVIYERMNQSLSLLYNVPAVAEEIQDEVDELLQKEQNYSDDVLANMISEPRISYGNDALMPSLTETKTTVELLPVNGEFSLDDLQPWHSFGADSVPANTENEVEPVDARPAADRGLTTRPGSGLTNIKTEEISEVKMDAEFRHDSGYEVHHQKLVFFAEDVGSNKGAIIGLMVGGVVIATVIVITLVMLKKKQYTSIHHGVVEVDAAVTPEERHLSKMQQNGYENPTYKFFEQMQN
pKi: −log10 of the molar value.

- compound: "COc1ccc(/C=C/C=C2\\C(=O)Nc3ccccc32)cc1 (mixture of isomers)"
  system: "Amyloid-beta precursor protein (Homo sapiens, UniProt P05067)"
  pKi: 6.90
- compound: "COc1ccc(CN2C(=O)/C(=C/C=C/c3ccc([N+](=O)[O-])cc3)c3ccccc32)cc1OC"
  system: "Amyloid-beta precursor protein (Homo sapiens, UniProt P05067)"
  pKi: 6.89
- compound: "COc1ccc(CN2C(=O)/C(=C\\c3ccc(N(C)C)cc3)c3cccnc32)cc1 (mixture of isomers)"
  system: "Amyloid-beta precursor protein (Homo sapiens, UniProt P05067)"
  pKi: 6.95
- compound: "COc1cccc(CN2C(=O)/C(=C/C=C/c3ccc([N+](=O)[O-])cc3)c3ccccc32)c1"
  system: "Amyloid-beta precursor protein (Homo sapiens, UniProt P05067)"
  pKi: 6.58
- compound: "O=C1Nc2ccccc2/C1=C\\c1ccc([N+](=O)[O-])cc1"
  system: "Amyloid-beta precursor protein (Homo sapiens, UniProt P05067)"
  pKi: 6.36
- compound: "COc1ccc(CN2C(=O)/C(=C\\C=C\\c3ccc(N(C)C)cc3)c3cccnc32)cc1 (mixture of isomers)"
  system: "Amyloid-beta precursor protein (Homo sapiens, UniProt P05067)"
  pKi: 6.97
- compound: "O=C1Nc2ccccc2/C1=C/C=C/c1ccc([N+](=O)[O-])cc1"
  system: "Amyloid-beta precursor protein (Homo sapiens, UniProt P05067)"
  pKi: 7.44
- compound: "CCOC(=O)N1C(=O)/C(=C\\C=C\\c2ccc(N(C)C)cc2)c2ccccc21 (mixture of isomers)"
  system: "Amyloid-beta precursor protein (Homo sapiens, UniProt P05067)"
  pKi: 7.08
- compound: "O=C1/C(=C\\C=C\\c2ccc([N+](=O)[O-])cc2)c2ccccc2N1Cc1ccc(OCCF)cc1"
  system: "Amyloid-beta precursor protein (Homo sapiens, UniProt P05067)"
  pKi: 6.85
- compound: "CN(C)c1ccc(/C=C2\\C(=O)N(Cc3ccccc3)c3ncccc32)cc1 (mixture of isomers)"
  system: "Amyloid-beta precursor protein (Homo sapiens, UniProt P05067)"
  pKi: 6.72
- compound: "CN(C)c1ccc(/C=C2\\C(=O)N(C)c3ccccc32)cc1 (mixture of isomers)"
  system: "Amyloid-beta precursor protein (Homo sapiens, UniProt P05067)"
  pKi: 6.81
- compound: "O=C1/C(=C/C=C/c2ccc([N+](=O)[O-])cc2)c2ccccc2N1Cc1ccc(OCCF)cc1"
  system: "Amyloid-beta precursor protein (Homo sapiens, UniProt P05067)"
  pKi: 6.90
- compound: "O=C1/C(=C\\C=C\\c2ccc([N+](=O)[O-])cc2)c2ccccc2N1Cc1ccccc1"
  system: "Amyloid-beta precursor protein (Homo sapiens, UniProt P05067)"
  pKi: 6.67
- compound: "CN(C)c1ccc(/C=C/C=C2\\C(=O)N(c3ccccc3)c3ccccc32)cc1 (mixture of isomers)"
  system: "Amyloid-beta precursor protein (Homo sapiens, UniProt P05067)"
  pKi: 6.54
- compound: "CN(C)c1ccc(/C=C2\\C(=O)Nc3ccc(O)cc32)cc1 (mixture of isomers)"
  system: "Amyloid-beta precursor protein (Homo sapiens, UniProt P05067)"
  pKi: 7.02
- compound: "O=C1/C(=C/C=C/c2ccc([N+](=O)[O-])cc2)c2ccccc2N1Cc1ccccc1"
  system: "Amyloid-beta precursor protein (Homo sapiens, UniProt P05067)"
  pKi: 6.63
